Origin of measurements: the nanobody polyreactivity screen of Harvey et al. (2022)

- Method: yeast display, Sf9 membrane polyspecificity reagent, FACS + sequencing; frameworks hold sequencing errors
Attribute Measured: polyreactivity (PSR sort gate)

Examples from the recorded data:
| Primary Sequence | polyreactivity (PSR sort gate) |
| --- | --- |
| QVQLVESGGGLVQAGGSLRLSCAASGRTFVPYDMGWYRQAPGKERELVAAISSGDSTNYTDSVKGRFTISRDNAKNTVYLQMNSLKPEDTAVYYCAADLTYTMDHWGQGTQVTVSS | low polyreactivity |
| QVQLVESGGGLVQAGGSLRLSCAASGRIFGQNVIGWYRQAPGIERELVAAITSAGRTYYADSVKGRFTISRDNAKNPVYLQMNSLKPEDTAVYYCAAQYPINYFTGYGYWGQGTQVTVSS | high polyreactivity |
| QVQLVESGGGLVQAGGSLRLSCAASGRTFGLYAMRWYRQAPGKERELVAAISIRGGATYYAVSVKGRFTISRDNAKNTVYLQMNSLKPEDSAVYYCNKGPGRWYYWGQVTQVTVSS | low polyreactivity |
| QVQLVESVGALVQAGGSLRLSCAASGSIFIPYAMGWYRQAPGKEWEFVATITFGAASTYYADSVKGRFTISRDNAKNTVYLQMNSLKPEDTAVYYCNAEGYVYPYYREGDYWGQGTQVTVSS | low polyreactivity |
| QVQLVESGGGLVQAGGSLRLSCAASGSTFTVNCMGWYRQAPGKERELVASITWSGGSTYYADSVKGRFTISRDNAKNTVYFQMNSLKPEDTAVYYCAADEKLYITGYDYWGQGTQVTVSS | low polyreactivity |

For the next question, use this sequence.
Entry `QVQLVESGGGLVQAGGSLRLSCAASGITVDYYVMGWYRQAPGKERELVASIDSGGRTKYADSVKGRFTISRDNAKNTVYLQMNILKPEDTAVYYCAARSYVFRSRWIRWPKYWGQGTQVTVSS` ; polyreactivity (PSR sort gate) = high polyreactivity
